B1: glmS ribozyme (parent)
chain: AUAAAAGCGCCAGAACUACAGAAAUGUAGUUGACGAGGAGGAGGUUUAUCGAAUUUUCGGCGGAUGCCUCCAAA

Variants of: B1
Assay: self-cleavage kobs at 40 uM GlcN6P; higher = faster cleavage; RNA array
Settings: with glucosamine-6-phosphate
Variants at the floor of the assay were thinned out.
Exercise: state measured self-cleavage kobs at 40 uM GlcN6P for each of the variants provided.

IN: GET /values?readout=self-cleavage kobs at 40 uM GlcN6P&item= AUAAAAGCGCCAGAACUACAGAAAUGUAGUUGACGAGGAAGAGGAUUAUCGAAUUUUCGGCGGAUGCCUCCAAA [G40A U45A]
OUT: 0.000251 s⁻¹

IN: Queued: AUAAAAGCGCCAGCACUACAGAAAUGUAGGUGACGAGGAGGAGGUUUAUAGAAUUUUCGUCGUAUGCCUCCAAA [A14C U30G C50A G60U G63U]
OUT: < 1e-05 s⁻¹

IN: Queued: AUAAAAGCGCCUGAACUACAGAAAUGUAGUUGACGAGGAUCAGGUUUAUCGAAUUUUCGGCGGAUGCCUCCAAA [A12U G40U G41C]
OUT: < 1e-05 s⁻¹

IN: Queued: AUAAAAGCGCCAAAACUACAGAAAUGUAGUUGACGUGGAGGAGGUUUGUGGAAUUUUCGGGGGAUGCCUCCAAA [G13A A36U A48G C50G C61G]
OUT: 0.000674 s⁻¹

IN: Queued: AUAAAAGCGUUAGAACUACAGAAAUGUAGUUGACGAGGAGGAGGUUUAUCGAAUUUUCGGCGGGAGCCUCCAAA [C10U C11U A64G U65A]
OUT: < 1e-05 s⁻¹

IN: Queued: AUAAAAGCGCCAGAACUACAGAAAUGUAGUUGACGAGGAGGAGGUUUCUCGAAUUUUCGGCGGAUGCCGUCAAA [A48C U69G C70U]
OUT: < 1e-05 s⁻¹

IN: Queued: AUAAAAGCGCCAGAACUACAGAAAUGUAGUUGACGAGGUGGAGGUUUAUCGAAUACUCGGCGGAUGCCUCCAAA [A39U U55A U56C]
OUT: 2.36e-05 s⁻¹

IN: Queued: AUAAAAGCGCCAGAACUACAGAAAUGUAGUUGACGAAGAGGAGGUUUAUCGAGUUUUCGUUGAAUGCCUCCAAA [G37A A53G G60U C61U G63A]
OUT: < 1e-05 s⁻¹

IN: Queued: AUAAAGGCGCCAGAACUACAGAAAUGUAGUUGACGAGUGGGAGGUUUAUCAAAUUUUCGGCGGAUGCGUUCAAA [A6G G38U A39G G51A C68G C70U]
OUT: 7.83e-05 s⁻¹

IN: Queued: AUAAAAGCGCCAGAACUACAGAAAUGUAGUUGACGAGGGGGAGGCUUAUCGAAUUUUCGGCGGAUGUCUCCAAA [A39G U45C C67U]
OUT: 0.000136 s⁻¹

IN: Queued: AUAAAAGCCCCAGAGCUACAGAAAUGUAGUUGACGAGGAGGAGGUUUAUGGAAUUUUCCGCGGAUGCCUGCAAA [G9C A15G C50G G59C C70G]
OUT: 0.00011 s⁻¹

IN: Queued: AUAAAAGCGACAGAACUACAGAAAUGUAGUUGACGAGGAGGAGGUUUAUCGAAUUUUCGGCUGAUGCCUCCAAA [C10A G62U]
OUT: < 1e-05 s⁻¹

IN: Queued: AUAAAAGCGCCAGAGCUACAGAAAUGUAGUUGACUAGGAGGAGGUUUAUCGAAUUUUCGGCGGAUGCCUCCAAA [A15G G35U]
OUT: < 1e-05 s⁻¹

IN: Queued: AUAAAAGCGCCUGAGCUACAGAAAUGUAGUUGACGAGGGGGAGGUUUAUCGAAUUUUCGGCGGAUGCCUCCAAA [A12U A15G A39G]
OUT: 0.00105 s⁻¹

IN: Queued: AUAAAAGCGCCAGAACUACAGAAAUGUAGUUGACGAGAAGGAGGUUCAUCGAAUUUUCGGCGGAUGCCUCCAAA [G38A U47C]
OUT: < 1e-05 s⁻¹

IN: Queued: AUAAAAGCGCCAGAACUACAGAAAUGUAGUUGACGAGGAGGAGGUUUAUUGAAUUUUCGGCGUAUGCCUCCAAA [C50U G63U]
OUT: < 1e-05 s⁻¹

IN: Queued: AUAAAAGCGCCAGAACUACAGAAAUGUAGUUGACGAGGAGGAGGUUUAUCGAAUUUACUGCGGAUGCCUCCAAA [U57A G59U]
OUT: < 1e-05 s⁻¹

IN: Queued: AUAAAAGCGCCAGAAUUACAGAAAUGUAGUUGGCGAGGAGGAGGUUUAUCGAAUUUUCGGCGGAUGCCUCCAAA [C16U A33G]
OUT: < 1e-05 s⁻¹

IN: Queued: AUAAAAGCGCCUGAACUACAGAAAUGUAGUUGACGAGGAGGCGGUUUAUCGAAUUUUCGGCGGAUGCCUCCAAA [A12U A42C]
OUT: < 1e-05 s⁻¹

IN: Queued: AUAAAAGCGCCAGAACUACAGAAAUGUAGUUGACGAGGAGGACGUUAAUCGAAUUUUCGGCGGAUGCCUCCAAA [G43C U47A]
OUT: < 1e-05 s⁻¹

IN: Queued: AUAAAAGCGCCAGCACUACAGAAAUGUAGUUGACGAGGAUGAGGUCUAUCGAAUUUUCGGCGGAUGCUUCCAAA [A14C G40U U46C C68U]
OUT: < 1e-05 s⁻¹

IN: Queued: AUAAAAGCGCCAGAACUACAGAAAUGUAGUUGACGAGGAGGAGGUUUAUCGAAGUUUCGGCGGAUUCCUCCAAA [U54G G66U]
OUT: 5.67e-05 s⁻¹

IN: Queued: AUAAAAGCGCCAGAACUACAGAAAUGUAGUUGACUAGGAGUAGGUUUAUCGAAUUUUCGGCGGAUGCCUUCAAA [G35U G41U C70U]
OUT: < 1e-05 s⁻¹

IN: Queued: GUAAAAGCGCCAGAACUACAGAAAUGUAGUUGACGAGGAGGAGGUUUAUCGAAUUUUCGGCGGAUGCCUCCAAA [A1G]
OUT: 0.00124 s⁻¹

IN: Queued: AUAAAAGCGCCAGAACUACAGAAAUGUAGUUGACCAGGAGGAGGUUUAUCGAAUUUUAGGCGGAUGCCUCAAAA [G35C C58A C71A]
OUT: < 1e-05 s⁻¹

IN: Queued: AUAAAAGCGCCAGAACUACAGAAAUGUAGUUGACGAGGAUGAGGUUUAUCGAAUUUACGGCGGAUGCCUCCAAA [G40U U57A]
OUT: < 1e-05 s⁻¹

IN: Queued: AUAAAAGCGCCACAACUACAGAAAUGUAGUUGACGAGGAGGAGGUUUAUCGAAUUUUCCGCGGAUGCCUCCAAA [G13C G59C]
OUT: < 1e-05 s⁻¹

IN: Queued: AUAAAAGCGCCAGAACUACAGAAAUGUAGUAGACGAGGAGGAGGUUUAUCGAAUUUUCGGCGGAUGUCUCCAAA [U31A C67U]
OUT: 0.000116 s⁻¹

IN: Queued: AUAAAAGCGCCAGAAGUACAGAAAUGUAGUUGACGAGGAGGAGGUUUAUCGAAUAUUCGGCGGAUGCCUCCAAA [C16G U55A]
OUT: 0.00015 s⁻¹

IN: Queued: AUAAAAGCGCCAGAACUACAGAAAUGUAGUUGACGAGGAGGAGGUUCGUGGAAUUUUCGGCGGAUGCCUGCAAA [U47C A48G C50G C70G]
OUT: 3.16e-05 s⁻¹

IN: Queued: AUAAAGGCGCCAGAAUUACAGAAAUGUAGUUCACGAGGAGUAGGUUUAUCGAAUUUUCGGCGGAUGCUUCCAAA [A6G C16U G32C G41U C68U]
OUT: < 1e-05 s⁻¹

IN: Queued: AUAAAAGCGCCAGAACUACAGAAAUGUAGUUGACGAGGAGGAGGUGUCUCGAAUUUUCGGCGGAUGCCUCCAAA [U46G A48C]
OUT: < 1e-05 s⁻¹

IN: Queued: AUAAAAGCGCCAGAACUACAGAAAUGUAGUUGUCGGGGAGCAGGUUUAUCGAGUUUUCGGCGGAUGCCUCCAAA [A33U A36G G41C A53G]
OUT: < 1e-05 s⁻¹
